Molecular target: T1, human IL2Ra (human, UniProt P01589 22-240, limits assumed)
T1 construct: bought protein, coated on the plate; also called hIL2RA; IL-2 receptor alpha
T1 sequence (looked up): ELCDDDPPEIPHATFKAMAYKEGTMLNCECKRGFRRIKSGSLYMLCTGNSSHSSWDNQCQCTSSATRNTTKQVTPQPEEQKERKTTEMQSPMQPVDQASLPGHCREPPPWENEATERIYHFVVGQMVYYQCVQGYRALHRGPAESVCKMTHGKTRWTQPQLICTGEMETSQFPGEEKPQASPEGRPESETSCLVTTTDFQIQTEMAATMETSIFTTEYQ
Assay: IL2Ra direct binding ELISA, signal ratio to isotype control
outcomeMeasure: hIL2RA ELISA Binding: Ratio to Isotpye (ratio)
Output spec: scalar in ratio, unitless text.

Previously resolved entries follow.
TPP-26316 (antibody, V domains shown) VH: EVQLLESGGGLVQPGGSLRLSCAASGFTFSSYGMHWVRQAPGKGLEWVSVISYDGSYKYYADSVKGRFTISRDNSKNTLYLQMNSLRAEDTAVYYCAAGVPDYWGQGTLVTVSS VL: QSVLTQPPSASGTPGQRVTISCTGSSSNIGAGYDVHWYQQLPGTAPKLLIYSNNERPSGVPDRFSGSKSGTSASLAISGLRSEDEADYYCAAWDMSLNGPVFGGGTKLTVL | 221
TPP-26333 (antibody, V domains shown) VH: EVQLLESGGGLVQPGGSLRLSCAASGFTFSSYGFHWVRQAPGKGLEWVSVISYDGSYKYYADSVKGRFTISRDNSKNTLYLQMNSLRAEDTAVYYCAAGVPDYWGQGTLVTVSS VL: QSVLTQPPSASGTPGQRVTISCTGSSSNIGAGYDVHWYQQLPGTAPKLLIYSNNERPSGVPDRFSGSKSGTSASLAISGLRSEDEADYYCAAWDDSLNGPVFGGGTKLTVL | 436
TPP-26311 (antibody, V domains shown) VH: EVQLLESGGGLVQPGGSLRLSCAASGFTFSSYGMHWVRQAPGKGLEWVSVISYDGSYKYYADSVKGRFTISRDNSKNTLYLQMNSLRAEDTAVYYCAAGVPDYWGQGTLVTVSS VL: QSVLTQPPSASGTPGQRVTISCTGSSSNIGAGYDHHWYQQLPGTAPKLLIYSNNERPSGVPDRFSGSKSGTSASLAISGLRSEDEADYYCAAWDDSLNGPVFGGGTKLTVL | 292
TPP-26295 (antibody, V domains shown) VH: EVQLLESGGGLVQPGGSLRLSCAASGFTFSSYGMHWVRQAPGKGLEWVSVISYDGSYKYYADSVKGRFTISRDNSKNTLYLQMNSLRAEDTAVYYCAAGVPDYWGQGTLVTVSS VL: QSVLTQPPSASGTPGQRVTISCTGSSSNIGAGYDVHWYQQLPGTAPKLLIYSNNERPSGVPDRFSGSKSGTSASLAISGLRSEDEADYYCAAWDHSLNGPVFGGGTKLTVL | 385
TPP-26298 (antibody, V domains shown) VH: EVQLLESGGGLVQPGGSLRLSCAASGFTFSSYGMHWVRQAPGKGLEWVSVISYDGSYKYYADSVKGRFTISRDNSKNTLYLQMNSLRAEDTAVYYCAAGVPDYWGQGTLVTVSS VL: QSVLTQPPSASGTPGQRVTISCLGSSSNIGAGYDVHWYQQLPGTAPKLLIYSNNERPSGVPDRFSGSKSGTSASLAISGLRSEDEADYYCAAWDDSLNGPVFGGGTKLTVL | 474
TPP-26310 (antibody, V domains shown) VH: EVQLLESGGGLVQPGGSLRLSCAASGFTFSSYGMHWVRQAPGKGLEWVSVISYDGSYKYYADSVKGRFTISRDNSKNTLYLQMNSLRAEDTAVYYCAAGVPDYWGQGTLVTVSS VL: QSVLTQPPSASGTPGQRVTISCTGSSSNIGAGYDVHWYQQLPGTAPKLLIYSNNERPWGVPDRFSGSKSGTSASLAISGLRSEDEADYYCAAWDDSLNGPVFGGGTKLTVL | 231

Ask | Quickly give me recorded hIL2RA ELISA Binding: Ratio to Isotpye for TPP-26329 (antibody, V domains shown) VH: EVQLLESGGGLVQPGGSLRLSCAASGFTFSSWGMHWVRQAPGKGLEWVSVISYDGSYKYYADSVKGRFTISRDNSKNTLYLQMNSLRAEDTAVYYCAAGVPDYWGQGTLVTVSS VL: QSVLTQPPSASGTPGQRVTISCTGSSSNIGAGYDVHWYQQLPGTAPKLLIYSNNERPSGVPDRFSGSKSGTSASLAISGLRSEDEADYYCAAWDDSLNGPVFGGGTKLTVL
Reply | 247

Ask | Quickly give me recorded hIL2RA ELISA Binding: Ratio to Isotpye for TPP-26328 (antibody, V domains shown) VH: EVQLLESGGGLVQPGGSLRLSCAASGFTFSSYGMHWVRQAPGKGLEWVSVISYDGSYKYYADSVKGRFTISRDNSKNTLYLQMNSLRAEDTAVYYCAATVPDYWGQGTLVTVSS VL: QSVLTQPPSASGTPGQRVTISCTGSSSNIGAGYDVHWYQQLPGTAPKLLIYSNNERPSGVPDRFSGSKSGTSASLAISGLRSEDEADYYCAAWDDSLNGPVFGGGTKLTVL
Reply | 27

Ask | Quickly give me recorded hIL2RA ELISA Binding: Ratio to Isotpye for TPP-26293 (antibody, V domains shown) VH: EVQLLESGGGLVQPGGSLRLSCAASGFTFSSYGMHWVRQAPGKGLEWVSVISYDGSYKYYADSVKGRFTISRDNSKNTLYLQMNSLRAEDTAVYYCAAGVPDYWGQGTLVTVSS VL: QSVLTQPPSASGTPGQRVTISCTGSSSNIGAWYDVHWYQQLPGTAPKLLIYSNNERPSGVPDRFSGSKSGTSASLAISGLRSEDEADYYCAAWDDSLNGPVFGGGTKLTVL
Reply | 384

Ask | Quickly give me recorded hIL2RA ELISA Binding: Ratio to Isotpye for TPP-26327 (antibody, V domains shown) VH: EVQLLESGGGLVQPGGSLRLSCAASGFTFSSYGMHWVRQAPGKGLEWVSVIRYDGSYKYYADSVKGRFTISRDNSKNTLYLQMNSLRAEDTAVYYCAAGVPDYWGQGTLVTVSS VL: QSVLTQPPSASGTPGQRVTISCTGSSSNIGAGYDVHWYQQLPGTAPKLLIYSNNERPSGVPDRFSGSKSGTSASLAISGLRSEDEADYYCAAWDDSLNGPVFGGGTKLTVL
Reply | 11
